- measurement_description: chemical genetic growth profiling, strain panel (AID 1159580);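 also: tested at 20 µM; growth read once vehicle control cultures reached saturation at 30 °C; 1 = growth at the plate median or of vehicle wells; lower values mean less growth of the strain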
- cond: S. cerevisiae deletion strains, growth OD, locus YNL197C, strain WHI3
Out of some 5,500 compounds screened, about 2,000 (36%) were called active. Not shown: some 18% with an inconclusive outcome. Rule as the data show it: active = normalized growth mostly below about 0.91 (no sharp cut-off); inconclusive = no clear call, values can overlap the other calls; inactive = mostly above about 0.92. Some of the results follow.
The reply should name one outcome from True = active, False = inactive

Use the examples below as a reference point.
compound | label_value
OCc1cc(C(O)CNCCCCCCOCCCCc2ccccc2)ccc1O (stereo unspecified) | False
c1ccc2c(c1)CCCC2C1=NCCN1 (stereo unspecified) | False
CN1C2CCC1CC(OC(c1ccccc1)c1ccccc1)C2 (stereo unspecified) | False
CCCCCCCCCCCCCCCCCC(=O)NCC(COP(=O)([O-])OCC[N+](C)(C)C)OCC (stereo unspecified) | True
O=C(O)CCCc1ccc(N(CCCl)CCCl)cc1 | False
CCCCNC(=O)NS(=O)(=O)c1ccc(C)cc1 | False

Asked: # outcome recorded in this test, key = Cc1ccc(C(=O)Nc2ccc(S(=O)(=O)O)c3cc(S(=O)(=O)O)cc(S(=O)(=O)O)c23)cc1NC(=O)c1cccc(NC(=O)Nc2cccc(C(=O)Nc3cc(C(=O)Nc4ccc(S(=O)(=O)O)c5cc(S(=O)(=O)O)cc(S(=O)(=O)O)c45)ccc3C)c2)c1
Given back: False

Asked: # outcome recorded in this test, key = NC(Cc1ccc(N(CCCl)CCCl)cc1)C(=O)O (stereo unspecified)
Given back: False

Asked: # outcome recorded in this test, key = COc1cc(C(O)CO)ccc1O (stereo unspecified)
Given back: False

Asked: # outcome recorded in this test, key = Clc1cccc(N2CCNCC2)c1
Given back: False

Asked: # outcome recorded in this test, key = N[C@H]1CONC1=O
Given back: False

* * *

Measured normalized growth, listed per entry for reference.
- measurement_description: chemical genetic growth profiling, strain panel (AID 1159580)
- cond: S. cerevisiae deletion strains, growth OD, locus YGL078C, strain dbp3, hits give low values
Out of some 5,500 compounds screened, about 2,000 (36%) were called active. Roughly 18% stayed inconclusive and do not appear here. The list shows a part of the results.
Could you keep your reply to the number by itself?

Record excerpt, results attached:
compound | normalized growth
CCN(CC)Cc1ccc(Nc2ccnc3cc(Cl)ccc23)cc1O | 1
COc1ccc(-c2coc3cc(O)ccc3c2=O)c(OC)c1O | 0.986
C=C[C@@](C)(O)CCC1C(=C)C[C@H](O)C2C(C)(C)CCCC12C (some centres undefined) | 1.02

Asked: Which value of normalized growth has been reported for NS(=O)(=O)c1cc2c(cc1Cl)NC=NS2(=O)=O in the records?
Given back: 1

* * *

Measured normalized growth, listed per entry for reference.
- measurement_description: chemical genetic growth profiling, strain panel (AID 1159580)
- cond: S. cerevisiae deletion strains, growth OD, locus YMR129W, hits give low values
The campaign covered roughly 5,500 compounds. About 2,000 (36%) were called active. Another 18% or so got no clear call; they are omitted. This is one part of the list.
Could you keep your reply to the number by itself?

Record excerpt, results attached:
molecule | normalized growth
CO/N=C1/CN(c2nc3c(cc2F)c(=O)c(C(=O)O)cn3C2CC2)CC1CN (stereo unspecified) | 1.01
O=C(O)CCCc1ccc(N(CCCl)CCCl)cc1 | 0.969
CC[C@]1(O)CC2CN(CCc3c([nH]c4ccccc34)[C@@](C(=O)OC)(c3cc4c(cc3OC)N(C)[C@H]3[C@@](O)(C(=O)OC)[C@H](OC(C)=O)[C@]5(CC)C=CCN6CC[C@]43[C@@H]65)C2)C1 (stereo partly specified) | 0.967
Clc1ccc(C(c2ccc(Cl)cc2)C(Cl)(Cl)Cl)cc1 | 1.01
N[C@@H](Cc1ccc(N(CCCl)CCCl)cc1)C(=O)O | 0.981

As a next step, examine the molecule that follows.
Asked: Which value of normalized growth has been reported for COc1c(N2CCNC(C)C2)c(F)cc2c(=O)c(C(=O)O)cn(C3CC3)c12 (stereo unspecified) in the records?
Given back: 0.974

* * *

- measurement_description: chemical genetic growth profiling, strain panel (AID 1159580);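 also: tested at 20 µM; growth read once vehicle control cultures reached saturation at 30 °C; 1 = growth at the plate median or of vehicle wells; lower values mean less growth of the strain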
- cond: S. cerevisiae deletion strains, growth OD, locus YKR091W, strain srl3, hits give low values
Screen size: about 5,500 compounds; about 2,000 (36%) were called active. Another 18% or so got no clear call; they are omitted. Some of the results follow.
observed_property: normalized growth
Could you keep your reply to the number by itself?

Record excerpt, results attached:
compound | normalized growth
O=S(=O)(O)CCS | 0.98
O=C(O)CCCc1ccc(N(CCCl)CCCl)cc1 | 0.962
CN1C2CCC1CC(OC(c1ccccc1)c1ccccc1N)C2 (stereo unspecified) | 0.996
CN(C)CCN(Cc1ccccc1)c1ccccn1 | 1.01

Asked: Which value of normalized growth has been reported for O=c1cccc2ccc(O)c(O)c2c1O in the records?
Given back: 0.99

Asked: Which value of normalized growth has been reported for COC(=O)c1cc(=O)c(O)c2c(O)c(O)ccc2c1 in the records?
Given back: 0.994

Asked: Which value of normalized growth has been reported for Cn1c(=O)c2c(ncn2CC(O)CO)n(C)c1=O (stereo unspecified) in the records?
Given back: 0.994

Asked: Which value of normalized growth has been reported for CCCc1cc(C(N)=S)ccn1 in the records?
Given back: 0.96

Asked: Which value of normalized growth has been reported for C=C[C@@](C)(O)CCC1C(=C)CCC2[C@@](C)(CO)CCC[C@]12C (stereo partly specified) in the records?
Given back: 1.07

Asked: Which value of normalized growth has been reported for CC(=O)S[C@@H]1CC2=CC(=O)CC[C@]2(C)[C@H]2CC[C@@]3(C)[C@@H](CC[C@@]34CCC(=O)O4)C12 (stereo partly specified) in the records?
Given back: 1.01

Asked: Which value of normalized growth has been reported for CN1C2C[C@H](OC(=O)[C@H](CO)c3ccccc3)C[C@H]1[C@@H](O)C2 in the records?
Given back: 1.02

Asked: Which value of normalized growth has been reported for O=C(O)CCCc1ccccc1 in the records?
Given back: 0.98

* * *

- measurement_description: chemical genetic growth profiling, strain panel (AID 1159580);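 also: tested at 20 µM; growth read once vehicle control cultures reached saturation at 30 °C; 1 = growth at the plate median or of vehicle wells; lower values mean less growth of the strain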
- cond: S. cerevisiae deletion strains, growth OD, locus YAL013W, strain DEP1, hits give low values
In all, about 5,500 compounds went through this assay and about 2,000 (36%) were called active. Another 18% or so got no clear call; they are omitted. The list shows a part of the results.
Measured normalized growth, listed per entry for reference.
Could you keep your reply to the number by itself?

Record excerpt, results attached:
molecule | measured
O=C(CCc1nc(-c2ccc(Cl)cc2)no1)NNS(=O)(=O)c1cc(Cl)c(Cl)cc1Cl | 1.01
S=c1nc2[nH]c3ccccc3c2n[nH]1 | 0.98
Cc1nn(C)c(C)c1[N+](=O)[O-] | 0.996
COC(=O)/C=C/C(C)=C/C=C/C(C)=C/C=C/C=C(C)/C=C/C=C(C)/C=C/C(=O)O | 1

As a next step, examine the molecule that follows.
Asked: Which value of normalized growth has been reported for NC(Cc1ccc(N(CCCl)CCCl)cc1)C(=O)O (stereo not given) in the records?
Given back: 0.981

* * *

- measurement_description: chemical genetic growth profiling, strain panel (AID 1159580);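 also: tested at 20 µM; growth read once vehicle control cultures reached saturation at 30 °C; 1 = growth at the plate median or of vehicle wells; lower values mean less growth of the strain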
- cond: S. cerevisiae deletion strains, growth OD, locus YAL026C, strain drs2, hits give low values
Hit rate of the full screen: of about 5,500 compounds, about 2,000 (36%) were called active. Not shown: some 18% with an inconclusive outcome. The list shows a part of the results.
Measured normalized growth, listed per entry for reference.
Could you keep your reply to the number by itself?

compound | observed_property | measured
OCCc1ccccc1 | normalized growth | 0.98

Asked: Which value of normalized growth has been reported for N[C@@H](Cc1ccc(N(CCCl)CCCl)cc1)C(=O)O in the records?
Given back: 0.997

Asked: Which value of normalized growth has been reported for O=S(=O)(O)CCS in the records?
Given back: 1

Asked: Which value of normalized growth has been reported for C#CCCCCCCCCCCCc1ccco1 in the records?
Given back: 0.98

Asked: Which value of normalized growth has been reported for C=CC[C@]1(O)CCC2C3CCC4=CC(=O)CCC4=C3C=C[C@@]21C (some centres undefined) in the records?
Given back: 0.975

Asked: Which value of normalized growth has been reported for c1ccc2c(c1)CCCC2C1=NCCN1 (centres undefined) in the records?
Given back: 1.02

Asked: Which value of normalized growth has been reported for CC#CC1(O)CCC2C3CCC4=CC(=O)CCC4=C3C(c3ccc(N(C)C)cc3)CC21C (centres undefined) in the records?
Given back: 0.996

Asked: Which value of normalized growth has been reported for C[C@]12CCC(=O)C=C1C=CC1C2CC[C@@]2(C)C1CC[C@@]2(O)CCC(=O)O (some centres undefined) in the records?
Given back: 1.01

Asked: Which value of normalized growth has been reported for C[C@@H]1CC(Cl)CC[C@H]1C(=O)OC(C)(C)C (some centres undefined) in the records?
Given back: 0.973

Asked: Which value of normalized growth has been reported for CCCc1cc(C(N)=S)ccn1 in the records?
Given back: 0.982

Asked: Which value of normalized growth has been reported for COC(=O)C[C@H]1C2(C)CC34OC5(C)O[C@@]6([C@H](OC)C(OC(=O)C(C)C)[C@]7(C)C(/C(=C(/OC)C(C)C)C(=O)O[C@H]7c7ccoc7)[C@@]6(O5)[C@H](OC)[C@@]3(OC)C2OC(C)=O)[C@]14C (some centres undefined) in the records?
Given back: 0.994

Asked: Which value of normalized growth has been reported for CCC[C@H](N[C@@H](C)C(=O)N1[C@H](C(=O)O)C[C@@H]2CCCC[C@@H]21)C(=O)OCC in the records?
Given back: 1.01

Asked: Which value of normalized growth has been reported for CC(=O)S[C@@H]1CC2=CC(=O)CC[C@]2(C)[C@H]2CC[C@@]3(C)[C@@H](CC[C@@]34CCC(=O)O4)C12 (some centres undefined) in the records?
Given back: 1.01

Asked: Which value of normalized growth has been reported for CCCCCCCCCCCCCc1ccco1 in the records?
Given back: 0.976
